Assay: yeast display, Sf9 membrane polyspecificity reagent, FACS + sequencing; frameworks hold sequencing errors
measurement type: polyreactivity (PSR sort gate)

Here are 5 sequences together with their reported answers.
According to the records, this sequence `QVQLVESGGGLVQAGGSLRLRCAASGIIFSYYAMGLSRQAPGKERELFAAISSSGSTNYADSVKGRFTISRDNAKNTVYLQMNSLKPEDTAVYYCNAGYGRRVYVYSFKLRYNYWGQGTQVTVSS` displays polyreactivity (PSR sort gate) of high polyreactivity

According to the records, this sequence `QVQLVESGGGLVQAGGSLRLSCAASGRTFSKYAMGWYRQAPGKERELVAAIRWSGGSTYYADSVKGRFTISRDNAKNTVYLQMNSLKPEDTAVYYCAKRSRGLKFDYWGQGTQVTVSS` displays polyreactivity (PSR sort gate) of high polyreactivity

According to the records, this sequence `QVQLVESGVGLFQAGGSLRLSCAASGRIFTLYTMGWYRQAPGKEREFVAALSRTGGRTYYADSVKGRFTISRDNAKNTVYLQMNSLKPEDTAVYYCAARSQSYTTHRYYYWGQGSQVTVSS` displays polyreactivity (PSR sort gate) of high polyreactivity

According to the records, this sequence `QVQLVESGGGLVQAGGSLRLTCAASGNTFSLNPMGWYRQATGTETELVASSTWDGASTYADSVKGRFTISRDNAKNTVFLQMNSLKPEDTAVYFCAADTYRYGRFLKFDYWGQGTQVTVSS` displays polyreactivity (PSR sort gate) of low polyreactivity

According to the records, this sequence `QVQLVESGAGLVQAGGSLRLSCAASGSTFYINTMGLYRQAPGKEREFVAAITWSGGSTYYADSVKGRFTISRDNAKNSGYLQMNSLKPEDTAVYYSAADLYVGDMDYRGQGTQVTVSS` displays polyreactivity (PSR sort gate) of low polyreactivity

Hi there! I need polyreactivity (PSR sort gate) for each item below, if you can.
1. QVQLVESGGGLVQAGGSLRLSCAASGSILRYNAMGWYSQARAKEREWVASISRGGGTNYAYSVKGRFTISRDNAKNTVYLQINSLKQEDTAVYYCAALTLRVDYDSQWYSLVDYWGQGTEVTVSS
2. QVKLVESGGGLVQAGGSLSLSCAASGSTIGGYAMGWYRQAPGKERELVAAIRRSGDSTYYADSVKGRFTISRDNAKNTVYLKMNRLKPEDTAVYYCAASYLHYRYRGRDYWGQGTQVTVSS
3. QVQLVESGGGLVQAGGSLRLSCAASGSTFGVYAMGWYRQAPGKERELVAAISWSSGSTYYADSVKGRFTISRDNAKNTVYLQLNSLKPEDTAVYYCNKDVYGYYRTGPRGYDYWGQGTQVTVSS
4. QVQLVESGGGLVQAGGSLRLSCAASGFTFGYNEMGWYRQAQGKERELVAGIRSGDDTNYADSVKGRFTISRDNAKNTVYLQMNSLKPEDTAVYYCPRDPQFYLHTVPDGAYNYWGQGTQVTVSS
5. QVQLVESGGRLVQAGGSLRLSCAASGITFTAYAMGWYRPAPGKERELVATINSTGITNYADSVKGRFTISRDNAKNTVYLQMNSLKPEDTAVYYCAADLLDISSYDGMDYWGQGTQVTVSS
6. QVQHVESGGGLVQSGGSLRLSCAASGSIFGKYSMGWYRQAPGKERELVAAISDSGSITYYADSVKGRLTISRDNAMYTFYLQMNSLKPEDTAVYYCAAEVNYYQRFKYEYWGQGTQVTVSS

1. low polyreactivity
2. low polyreactivity
3. high polyreactivity
4. low polyreactivity
5. low polyreactivity
6. high polyreactivity

* * *

Assay: yeast display, Sf9 membrane polyspecificity reagent, FACS + sequencing; frameworks hold sequencing errors
measurement type: polyreactivity (PSR sort gate)

According to the records, this sequence `QVQLVESGGGLVQAGGSLRLSCAASGRIFGYYTMGSYRQAPGKEREFVASISSTGGSTYYADSVKGRFTISRDNAKNTVYLQMNSLKPEDTAVYYCAARGRYVIDGYRMYYWGQGTQVTVSS` displays polyreactivity (PSR sort gate) of high polyreactivity

According to the records, this sequence `QVQLVESGGGLVQAGGSLRLSCAASGSILGTYAMGWYRQAPGKERELVAAISSSGRTSYADSVKGRFTISRDNAKNTVYLQMNSLKPEDTAVYYCNASNYIFLINDPDAAPWLYDYWGQGTQVTVSS` displays polyreactivity (PSR sort gate) of low polyreactivity

According to the records, this sequence `QDQLVESGGGLVQAGVSLRLSCAASGRTIRHNPMGWYIQAPGKERELVATINRGGNTYYADSVKGRFTISRDNAKNTVYLQMISLKPEDTAVYYCAARRSFLFDDGNYWGQVTQVTVSS` displays polyreactivity (PSR sort gate) of low polyreactivity

According to the records, this sequence `QVQLVESGAGIVQAGGSLRLSCAASGSTFYSYTMGWYRQAPGKERELVAAITSTGGRTYYADSVKGRFTISRDNAKITVYLQMNSLKPEDTAVYYCRRPYLYGMYYWGQGTQVTVSS` displays polyreactivity (PSR sort gate) of high polyreactivity

According to the records, this sequence `QVQLVESGGGLVQAGGSLRLSCAASGFIFAHNAMGWYRQAPGKERELVADITRDGNTYYADSVKGRFTISRDNAKNTVYLQMNSLKTEDTAVYYCAADVSTTWYWWGQFEFEYWGQGTQVTVSS` displays polyreactivity (PSR sort gate) of high polyreactivity

According to the records, this sequence `QVQLVESGGGLVQAGGSLRLSCAASGMTFTDYAMGWYRQAPGKERELVAAISRSGGTTYYADSVKGRFTISRDNAKNTVYLQMNSLKPEDTAVYYCAARVTPGRNGGGYWGQGTQVTVSS` displays polyreactivity (PSR sort gate) of high polyreactivity

According to the records, this sequence `QVQLVESGGGLVQAGGSLRLSCAASGITFNGYVMGWYRQAPGKERELVAAITSGGSTNYADSVKGRFTISRDNAKNTVYLQMNSLKPEDTAVYYCAARYKAYWQLYDYWGQGTQVTVSS` displays polyreactivity (PSR sort gate) of high polyreactivity

According to the records, this sequence `QVQLVESGGGLVQAGGSLRLICAASGYIFTYNAMGWYRQAPGKERELVAAISSGDGRTYYADSVKGRFTISRDNAKNTVYLQMNSLTPEDTAVYYCNATRVVYRQAYLYGYDYWGQGTQVTVSS` displays polyreactivity (PSR sort gate) of low polyreactivity

Hi there! I need polyreactivity (PSR sort gate) for each item below, if you can.
1. QVQLVESGGGLVQAGGSLRLSCAASGRTFYEYAMGWYRQAPGKERELVAAITRSGGSTYYADSVKGRFTISRDNAKNTVYLQMNSLKPEDTAVYYCAADGIKGGVEYDYWGQGTQVTVSS
2. QVQIVESGGGLVQAGGSLRLRCAASGRIVKYAMGWYRHAPGKERELVAAINSGGSTKYADSVKGRFTISRDNAKITVYLQMICLKPEDTAVYYCAARILYHMDLGQGTQVTVSS
3. QVQLVESGGGLVQAGGSLRLSCAASGFIFDWNTMGWYRQAPGKERELVAAITESSGSTYYADSVKGRFTISRDNAKNTVYLQMNSLKPEDTAVYYCAAELDVYVSIGSRFHFDYWGQGTQVTVSS
4. QVQLVESGGGLVQAGGSLRISCAASGFISYYYAMGWYRQAPGKERELVAAITKSGGSTYYADSVKGRFTISRDNAKNTVYLQMNSLKPDDTAVYYCAADRSTRNSTSRLYGYWGQGTQVTVSS
5. QVQLVESGGGLVQAGGSLRLSCAASGSTFYSYAMGWYRQAPGKERELVADITDSGGSTYYADSVKGRFTISRDNAKNTVYLQMNSLKPEDTALFYCNAAYYIWYNKVSSTYGIHGMDYWGQGTQVTVSS
6. QVQLVESGGGLVQARGSLRLSCAASGIIFSTYAMGWYRQAPGKERELVAAISASGVRTYYADSVKGRFTISRDNAKNTVYLQMNSLKPEDTAVYYCAVRGYPYLRYYWGQGTQVTVSS
7. QVQLVESGGGLVQAGGSLRLSCAASGFIFDINAMGWYRQAPGKERELVAAISYSGGSTYYADSVKGRFTISRDNAKNNVYLQMNSLKPEDTAVYYCAADSGPDSDEGDYWGQGTQVTVSS

high polyreactivity
high polyreactivity
low polyreactivity
low polyreactivity
high polyreactivity
high polyreactivity
low polyreactivity

Hi there! I need polyreactivity (PSR sort gate) for each item below, if you can.
1. QVQLVESGGRLVQAGGSLRLSCAASGITFNVYAMGWYRQEPGKERELVAAITSSGATTYYADSVKGRFTISRDNAKNTVYLQMNSLKPEDTSVYYCAAKLSTRRYKYDYWGQGTQVTVSS
2. QVHLVESGGGLVQAGGSLRLSCAASGFTFPWYAMGWYRQAPGKERELVAAINTGGSTYYADSVKGRFSISRDNAKNTVYLQMNSLKPDDTEVYYCATLGRYRYLNTYYWGSHDYWGQGTQVTVSS
3. QVQLVESGGGLVQAGGSLRLSCAASGITFYGYAMGWYRQAPGKERELVARISRGGRTYYADSVKGRFTISRDNAKNTVYLQMNSLKPEDTAVYYCAAGKYWYAGKYLYDYWGQGTQVTVSS
4. QDQLVESGGGLVQAGGSLRLSCAASGLTFPEYAMGWYRQAPGKERELVAAITWSGATTYYADSVKGRFTISRDNAKNTVYLQMNSLKPEDTAVYYCAAEYTVYNTALPGYYFTYYYWGQGTQVTVSS

["high polyreactivity", "high polyreactivity", "high polyreactivity", "high polyreactivity"]

Hi there! I need polyreactivity (PSR sort gate) for each item below, if you can.
1. QVQLVESGGGLVQAGGSLRLSCAASGSTFSGYAMGWYRQAPGKERELVAAITRSGGSTYYADSVKGRFTISRDNAKNTVYLQMNSLKPEDTAVYYCNVYFGYWVPTSTYYWSWDDYWGQGTQVTVSS
2. QVQLVESGGGLVQAGGSLRLSCAASGSIFDIYAMGWYRQAPGKETELVAAISWNGGDTTYADSVKGRFTISRDNAKNTVYLQMNSLKPEDTAVYYCAADLGYWVADYYWGQGTQVTVSS

["low polyreactivity", "high polyreactivity"]
